Biological target: Acetylcholinesterase (Electrophorus electricus, UniProt O42275)
Sequence (O42275 whole entry): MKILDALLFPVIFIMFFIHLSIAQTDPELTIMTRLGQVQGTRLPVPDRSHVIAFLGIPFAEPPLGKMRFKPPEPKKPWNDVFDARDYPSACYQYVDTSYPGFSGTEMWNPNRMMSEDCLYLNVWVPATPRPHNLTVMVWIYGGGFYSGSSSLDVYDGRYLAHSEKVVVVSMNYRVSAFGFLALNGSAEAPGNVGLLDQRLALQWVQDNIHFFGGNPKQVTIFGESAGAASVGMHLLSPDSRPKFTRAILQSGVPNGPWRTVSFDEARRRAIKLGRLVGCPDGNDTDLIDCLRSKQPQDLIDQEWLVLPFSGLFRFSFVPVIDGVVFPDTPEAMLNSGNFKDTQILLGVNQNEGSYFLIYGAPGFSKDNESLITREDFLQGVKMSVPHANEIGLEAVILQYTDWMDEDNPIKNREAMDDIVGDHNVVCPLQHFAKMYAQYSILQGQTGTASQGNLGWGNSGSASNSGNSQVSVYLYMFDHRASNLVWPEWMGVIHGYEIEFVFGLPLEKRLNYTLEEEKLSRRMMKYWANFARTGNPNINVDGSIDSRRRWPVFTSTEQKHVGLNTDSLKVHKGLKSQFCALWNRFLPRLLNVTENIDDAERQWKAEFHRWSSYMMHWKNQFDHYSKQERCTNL
Assay: Inhibition of electric eel AChE by Ellman's method
Settings: read-out: IC50
pIC50: −log10 of the molar value.
Returns one of criterion met or criterion not met; criterion met when pIC50 is >= 6.

Hello, I need to know if CCN(CCCCCCn1nc(-c2cc([N+](=O)[O-])ccc2O)ccc1=O)Cc1ccccc1N(C)C has measured pIC50 not below 6. Thanks!
criterion met

Now consider CCN(CCCCCCn1nc(-c2cc(N(C)C)ccc2O)ccc1=O)Cc1cccc(F)c1 .
criterion met

Now consider CCN(CCCCCCn1nc(-c2cc(C)ccc2O)ccc1=O)Cc1ccccc1N(C)C .
criterion met

Now consider CCN(CCCCCCn1nc(-c2cc(C)ccc2O)ccc1=O)Cc1ccccc1OC .
criterion not met

====

Assay: Drug concentration in mouse brain at 30 mg/kg administered intragastrically measured after 0.5 hrs
Type: ADME, organism-based
Details: po, route ig, read-out: Ct
readout_name: concentration at 0.5 h (ng/g)
// return numeric value only (unit: ng/g, not printed)

Consider the molecule shown here: CCN(CCCCCCn1nc(-c2cc(N(C)C)ccc2O)ccc1=O)Cc1ccccc1N(C)C What is its recorded concentration at 0.5 h?
82.9

====

Experiment: Ratio of drug concentration in brain to plasma of mouse at 30 mg/kg administered intragastrically measured after 0.5 hrs
Type: ADME, organism-based
Conditions: po, route ig, read-out: logBB (converted)
readout_name: Kp at 0.5 h
Lab note: record the figure alone, no unit after it.

Consider the compound shown here: CCN(CCCCCCn1nc(-c2cc(N(C)C)ccc2O)ccc1=O)Cc1ccccc1N(C)C What is its recorded Kp at 0.5 h?
0.245

====

Target: UniProt O42275
Assay: Inhibition of electric eel AChE by Ellman's method
Settings: read-out: IC50
readout_name: IC50 (nM)
// return numeric value only (unit: nM, not printed)

Consider the molecule shown here: CCN(CCCCCCn1nc(-c2ccccc2O)ccc1=O)Cc1ccccc1OC What is its recorded IC50?
740

Now consider CCN(CCCCCCn1nc(-c2cc(OC)ccc2O)ccc1=O)Cc1cccc(F)c1 .
2300

Now consider CCN(CCCCCCn1nc(-c2cc(N(C)C)ccc2O)ccc1=O)Cc1ccccc1N(C)C .
200

Now consider O=c1ccc(-c2ccccc2O)nn1CCCCCCN1CCCCC1 .
4560

Now consider CCN(CCCCCCn1nc(-c2cc(C)ccc2O)ccc1=O)Cc1cccc(F)c1 .
890

====

System: Butyrylcholinesterase (Rattus norvegicus)
Test: Inhibition of rat serum BuChE at 10 uM by Ellman's method relative to control
readout_name: inhibition (%)
// return numeric value only (unit: %, not printed)

Consider the compound shown here: CCN(CCCCCCCCn1nc(-c2cc(N(C)C)ccc2O)ccc1=O)Cc1ccccc1N(C)C What is its recorded inhibition?
32.1

Now consider CCN(CCCCCCn1nc(-c2cc(F)ccc2O)ccc1=O)Cc1cccc(F)c1 .
33

Now consider CCN(CCCCCCn1nc(-c2cc(Cl)ccc2O)ccc1=O)Cc1ccccc1N(C)C .
27.3

Now consider CCN(CCCCCCn1nc(-c2cc(N(C)C)ccc2O)ccc1=O)Cc1cccc(F)c1 .
15

Now consider CCN(CCCCCCn1nc(-c2ccccc2O)ccc1=O)Cc1ccccc1Cl .
19.6

====

Please provide measured IC50 for the entries that follow.
Target: Acetylcholinesterase (Electrophorus electricus, UniProt O42275)
Assay: Inhibition of electric eel AChE by Ellman's method
Details: read-out: IC50

Consider the compound shown here: CCN(CCCCCCn1nc(-c2ccc(OC)cc2O)ccc1=O)Cc1ccccc1N(C)C What is its recorded IC50?
1590 nM

Now consider CCN(CCCCCCn1nc(-c2cc(Br)ccc2O)ccc1=O)Cc1ccccc1N(C)C .
250 nM

Now consider CCN(CCCCCCn1nc(-c2cc(F)ccc2O)ccc1=O)Cc1ccccc1OC .
570 nM

Now consider CCN(CCCCCCn1nc(-c2cc(Cl)ccc2O)ccc1=O)Cc1ccccc1OC .
9250 nM

Now consider CCN(CC)CCCCCCn1nc(-c2ccccc2O)ccc1=O .
2480 nM

Now consider CCN(CCCCCCn1nc(-c2ccccc2O)ccc1=O)Cc1cccc(Cl)c1 .
2930 nM

Now consider CCN(CCCCCCOc1ccc(-c2cc(N(C)C)ccc2O)nn1)Cc1cccc(F)c1 .
2270 nM

Now consider CCN(CCCCCCn1nc(-c2cc(N(C)C)ccc2O)ccc1=O)Cc1ccccc1OC .
1210 nM

Now consider CCN(CCCCCCn1nc(-c2cc(F)ccc2O)ccc1=O)Cc1ccccc1N(C)C .
160 nM

Now consider CCN(CCCCCCn1nc(-c2ccccc2O)ccc1=O)Cc1ccc(F)cc1 .
8580 nM

Now consider O=c1ccc(-c2ccccc2O)nn1CCCCCCN1CCc2ccccc2C1 .
2580 nM

Now consider CCN(CCCCCCn1nc(-c2ccccc2O)ccc1=O)Cc1ccccc1F .
1030 nM

Now consider CCN(CCCCCCOc1ccc(-c2ccccc2O)nn1)Cc1cccc(F)c1 .
4260 nM

Now consider CCN(CCCCCCn1nc(-c2cccc(N(C)C)c2O)ccc1=O)Cc1ccccc1N(C)C .
4780 nM

Now consider CCN(CCCCCCn1nc(-c2ccccc2O)ccc1=O)Cc1cccc(F)c1 .
680 nM

Now consider CCN(CCCCCCn1nc(-c2cc(Br)ccc2O)ccc1=O)Cc1cccc(F)c1 .
2570 nM

Now consider CCN(CCCCCCn1nc(-c2cc(NC(C)=O)ccc2O)ccc1=O)Cc1ccccc1N(C)C .
86 nM

Now consider CCN(CCCCCCn1nc(-c2ccc(N(C)C)cc2O)ccc1=O)Cc1ccccc1N(C)C .
2160 nM

Now consider CCN(CCCCCCn1nc(-c2cc(Cl)ccc2O)ccc1=O)Cc1cccc(F)c1 .
1430 nM

Now consider CCN(CCCCCCn1nc(-c2cc(NC(C)=O)ccc2O)ccc1=O)Cc1cccc(F)c1 .
69 nM

Now consider CCN(CCCCCCn1nc(-c2ccccc2O)ccc1=O)Cc1ccccc1C .
2540 nM

====

Tested on: Butyrylcholinesterase (Rattus norvegicus)
Test: Inhibition of rat serum BuChE at 10 uM by Ellman's method relative to control
Returns one of yes or no; yes when inhibition is >= 30%.

Hello, I need to know if CCN(CCCCCCn1nc(-c2ccccc2O)ccc1=O)Cc1cccc(F)c1 has measured inhibition not below 30%. Thanks!
no

Now consider CCN(CCCCCCn1nc(-c2ccccc2O)ccc1=O)Cc1ccccc1N(C)C .
no

Now consider CCN(CCCCCCn1nc(-c2ccc(OC)cc2O)ccc1=O)Cc1ccccc1N(C)C .
no

Now consider CCN(CCCCCCn1nc(-c2ccccc2O)ccc1=O)Cc1ccccc1C .
no

Now consider CCN(CCCCCCn1nc(-c2cc(N(C)C)ccc2O)ccc1=O)Cc1ccccc1N(C)C .
no

Now consider CCN(CCCCCCn1nc(-c2cc(Br)ccc2O)ccc1=O)Cc1ccccc1OC .
yes

Now consider CCN(CC)CCCn1nc(-c2ccccc2O)ccc1=O .
no

Now consider COc1ccccc1CN(C)CCCCCCn1nc(-c2ccccc2O)ccc1=O .
no

Now consider CCN(CCCCCCn1nc(-c2cc([N+](=O)[O-])ccc2O)ccc1=O)Cc1cccc(F)c1 .
yes

Now consider CCN(CCCCCCn1nc(-c2cc(OC)ccc2O)ccc1=O)Cc1ccccc1OC .
no

Now consider CCN(CCCCCCn1nc(-c2cccc(N(C)C)c2O)ccc1=O)Cc1ccccc1N(C)C .
no

Now consider CCN(CCCCCCn1nc(-c2cc(Br)ccc2O)ccc1=O)Cc1ccccc1N(C)C .
yes

Now consider CCN(CCCn1nc(-c2ccccc2O)ccc1=O)Cc1ccccc1OC .
no

Now consider CCN(CCCCCCn1nc(-c2cc(C)ccc2O)ccc1=O)Cc1ccccc1N(C)C .
no

Now consider O=c1ccc(-c2ccccc2O)nn1CCCCCCN1CCCC1 .
no

Now consider CCN(CCCCCCn1nc(-c2cc(NC(C)=O)ccc2O)ccc1=O)Cc1cccc(F)c1 .
no

Now consider CCN(CCCCCCn1nc(-c2ccccc2O)ccc1=O)Cc1cccc(Cl)c1 .
no

Now consider CCN(CCCCCCn1nc(-c2cc(F)ccc2O)ccc1=O)Cc1ccccc1N(C)C .
no

Now consider CCN(CCCCCCn1nc(-c2cc(NC(C)=O)ccc2O)ccc1=O)Cc1ccccc1OC .
no

Now consider O=c1ccc(-c2ccccc2O)nn1CCCCCCN1CCOCC1 .
no

====

Molecular target: Amyloid-beta precursor protein (Homo sapiens) (UniProt P05067)
Sequence (P05067 whole entry): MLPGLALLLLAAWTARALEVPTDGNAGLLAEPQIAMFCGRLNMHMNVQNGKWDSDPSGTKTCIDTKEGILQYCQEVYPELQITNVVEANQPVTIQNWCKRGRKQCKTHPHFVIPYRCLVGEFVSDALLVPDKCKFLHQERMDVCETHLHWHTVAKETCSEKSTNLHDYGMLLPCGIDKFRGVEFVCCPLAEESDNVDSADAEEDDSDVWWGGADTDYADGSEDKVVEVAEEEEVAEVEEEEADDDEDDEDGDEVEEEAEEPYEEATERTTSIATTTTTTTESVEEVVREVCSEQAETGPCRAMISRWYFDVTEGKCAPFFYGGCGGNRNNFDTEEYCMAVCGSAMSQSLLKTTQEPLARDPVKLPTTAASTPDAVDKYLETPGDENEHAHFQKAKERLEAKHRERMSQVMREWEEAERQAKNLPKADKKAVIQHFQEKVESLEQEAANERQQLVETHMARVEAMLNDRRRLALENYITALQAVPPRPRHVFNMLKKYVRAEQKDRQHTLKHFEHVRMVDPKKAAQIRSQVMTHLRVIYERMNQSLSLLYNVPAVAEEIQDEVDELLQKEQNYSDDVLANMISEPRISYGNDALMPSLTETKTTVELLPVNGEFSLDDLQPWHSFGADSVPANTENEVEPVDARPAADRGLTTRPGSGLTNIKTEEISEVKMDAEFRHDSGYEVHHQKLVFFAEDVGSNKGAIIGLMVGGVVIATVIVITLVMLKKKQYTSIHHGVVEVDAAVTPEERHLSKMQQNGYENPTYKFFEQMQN
Assay: Inhibition of self-induced amyloid beta (1 to 42) (unknown origin) disaggregation by Thioflavin T based fluorometric assay relative to control
Design: concentration or dose not given beside the values
Conditions: concentration not given here
Please provide measured inhibition for the entries that follow.
A complete answer gives the number and then names the unit.

# returns recorded inhibition (system: Amyloid-beta precursor protein (Homo sapiens) (UniProt P05067)) for CCN(CCCCCCn1nc(-c2cc(OC)ccc2O)ccc1=O)Cc1ccccc1N(C)C
50.5%

Now consider CCN(CCCCCCn1nc(-c2cccc(N(C)C)c2O)ccc1=O)Cc1ccccc1N(C)C .
53%

Now consider CCN(CCCCCCOc1ccc(-c2cc(N(C)C)ccc2O)nn1)Cc1ccccc1N(C)C .
85.4%

Now consider CCN(CCCCCCn1nc(-c2cc(NC(C)=O)ccc2O)ccc1=O)Cc1ccccc1OC .
38.7%

Now consider CCN(CCCCCCCCn1nc(-c2cc(N(C)C)ccc2O)ccc1=O)Cc1ccccc1N(C)C .
86.9%

Now consider CCN(CCCCCCOc1ccc(-c2cc(N(C)C)ccc2O)nn1)Cc1cccc(F)c1 .
85.1%

Now consider CCN(CCCCCCn1nc(-c2cc(N(C)C)ccc2O)ccc1=O)Cc1ccccc1OC .
79.2%

Now consider CCN(CCCCCCn1nc(-c2ccc(N(C)C)cc2O)ccc1=O)Cc1ccccc1N(C)C .
67.8%

Now consider CCN(CCCCCCn1nc(-c2cc(NC(C)=O)ccc2O)ccc1=O)Cc1ccccc1N(C)C .
38.4%

Now consider CCN(CCCCCCn1nc(-c2cc(F)ccc2O)ccc1=O)Cc1ccccc1N(C)C .
26.1%

Now consider CCN(CCCCCCn1nc(-c2cc(N(C)C)ccc2O)ccc1=O)Cc1ccccc1N(C)C .
89%

Now consider CCN(CCCCCCn1nc(-c2cc(N(C)C)ccc2O)ccc1=O)Cc1cccc(F)c1 .
80.7%

Now consider CCN(CCCCCCn1nc(-c2cc(F)ccc2O)ccc1=O)Cc1ccccc1OC .
25.2%
